Biological target: T1, His-tagged P3028 (human, also: His-tag, terminus and sequence not given here)
T1 construct: used in solution in the PEPSCAN (rampo) ELISA; also called PGE73; His-tag-P3028; not shown: His tag
T1 peptide: VFDEFKPLVEEPQNLIK
Experiment: PEPSCAN ELISA (rampo)
No end group written: not given here.
Measured Metric: rampo value

// worked examples, rampo value included
>  <Binder>
KKLDTFFVKLSVFTER [SEQ ID NO 20]

>  <Result>
> 500 rampo units

$$$$
>  <Binder>
KKLDTFFVKLSQFTER [SEQ ID NO 19]

>  <Result>
> 500 rampo units

$$$$
>  <Binder>
KKEDTFFVKLSLFTER [SEQ ID NO 5]

>  <Result>
> 500 rampo units

$$$$
>  <Binder>
KKLDTFFVKLSMFTER [SEQ ID NO 21]

>  <Result>
> 500 rampo units

$$$$

Problem: For KKLDTVFVKLSLFTER [SEQ ID NO 8] , what is its reported rampo value?
Solution: > 500 rampo units

Problem: Note, next up: KKLDTFFVKLSLFPER [SEQ ID NO 32]
Solution: > 500 rampo units

Problem: What would you report for RKLDTFFVKLSLFTER [SEQ ID NO 3] ?
Solution: > 500 rampo units
